Target: T1, EsCas13d, nuclease-dead (Eubacterium siraeum, UniProt B0MS50, R295A;H300A;R849A;H854A)
T1 sequence: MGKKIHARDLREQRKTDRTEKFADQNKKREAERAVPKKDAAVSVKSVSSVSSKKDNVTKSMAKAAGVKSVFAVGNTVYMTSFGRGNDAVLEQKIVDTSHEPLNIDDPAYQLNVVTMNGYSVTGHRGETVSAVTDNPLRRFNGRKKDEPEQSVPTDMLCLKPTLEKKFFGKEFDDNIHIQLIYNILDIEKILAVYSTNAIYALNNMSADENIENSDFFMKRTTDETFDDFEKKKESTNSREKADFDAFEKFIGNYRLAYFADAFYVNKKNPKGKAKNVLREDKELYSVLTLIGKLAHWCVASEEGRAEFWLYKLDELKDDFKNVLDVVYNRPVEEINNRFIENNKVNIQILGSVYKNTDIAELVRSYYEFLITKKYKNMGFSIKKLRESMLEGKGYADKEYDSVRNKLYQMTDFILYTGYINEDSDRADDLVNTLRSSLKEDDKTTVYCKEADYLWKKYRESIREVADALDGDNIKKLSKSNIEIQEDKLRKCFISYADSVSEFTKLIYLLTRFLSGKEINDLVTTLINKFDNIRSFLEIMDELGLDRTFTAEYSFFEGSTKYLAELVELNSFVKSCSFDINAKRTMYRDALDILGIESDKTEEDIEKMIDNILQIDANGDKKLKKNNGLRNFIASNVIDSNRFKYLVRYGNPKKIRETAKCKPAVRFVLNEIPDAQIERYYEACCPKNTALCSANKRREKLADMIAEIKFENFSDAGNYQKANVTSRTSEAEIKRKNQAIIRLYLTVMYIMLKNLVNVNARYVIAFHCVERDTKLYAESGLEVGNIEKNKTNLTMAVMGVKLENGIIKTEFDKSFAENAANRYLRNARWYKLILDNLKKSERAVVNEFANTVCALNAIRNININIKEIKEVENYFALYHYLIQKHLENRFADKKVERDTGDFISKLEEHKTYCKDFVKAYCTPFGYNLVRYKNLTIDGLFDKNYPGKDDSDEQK
Test: crRNA (strand 1, pre-loaded); Mg2+; 40 mM Tris-HCl pH 7.5, 150 mM NaCl, 6 mM MgCl2, 1 mM DTT, 0.1% Tween-20, 0.2 mg/ml BSA; 25 C; 10 min per concentration, then washed
Details: tags: His6-TwinStrep-SUMO cleaved; N-terminal SNAP kept (SNAP-Surface 488); label: 3' end held by stalled T7 RNA polymerase
MEASURED ATTRIBUTE: Kd (nM)
Please give a number only; it is taken to be in nM.

Past entries and their recorded results:
target 1 insC 3' of 14,insC 3' of 8 (mixed) RNA 1: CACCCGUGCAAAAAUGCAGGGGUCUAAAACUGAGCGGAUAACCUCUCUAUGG RNA 2: GGGAAUGGAUCCACAUCUACGAAUUCGUACCAUAGAGACGGUUAUCCCGCUCACCGAGAUCGGAAGAGCACACGU = 48
target 1 U3G,G15A (mixed) RNA 1: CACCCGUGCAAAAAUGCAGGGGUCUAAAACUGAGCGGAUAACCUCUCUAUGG RNA 2: GGGAAUGGAUCCACAUCUACGAAUUCGUACCAUAGAAAGGUUAUCCGCGCACCGAGAUCGGAAGAGCACACGU = 17.5
target 1 del9,del15 (mixed) RNA 1: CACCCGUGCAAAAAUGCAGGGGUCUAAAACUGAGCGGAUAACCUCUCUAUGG RNA 2: GGGAAUGGAUCCACAUCUACGAAUUCGUACCAUAGAAGGUUUCCGCUCACCGAGAUCGGAAGAGCACACGU = 44

Now consider the entry below.
Exercise: Look up Kd: target 1 C4G,C7G (mixed) RNA 1: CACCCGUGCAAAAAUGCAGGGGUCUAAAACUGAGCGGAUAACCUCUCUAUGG RNA 2: GGGAAUGGAUCCACAUCUACGAAUUCGUACCAUAGAGAGGUUAUGCGGUCACCGAGAUCGGAAGAGCACACGU
Solution: 9.7

Hey, just so you know, these numbers are from paper PMC10786891.
